# Organism: Rattus norvegicus
# method: Open TG-GATES - Regimen: Daily Repeat
# Type: toxicity, organism-based, Sprague-Dawley
# Design: regimen Daily Repeat, gender Male, age 6 weeks
# conditions: in vivo, po, 0 mg/kg, 72 h, tissue Blood, route gavage, dose level Control, time 3 day
// APTT lookup, one value per entry
measured_endpoint: APTT

- compound: "ClC(Cl)(Cl)Cl [CARBON TETRACHLORIDE]"
  measured: "17 s"
- compound: "CN(C)CCC=C1c2ccccc2COc2ccccc21 [DOXEPIN]"
  measured: "17.1 s"
- compound: "CC[C@H]1[C@@H]2C[C@H]3[C@@H]4N(C)c5ccccc5[C@]45C[C@@H]([C@@H]2[C@H]5O)N3[C@@H]1O"
  measured: "16.4 s"
- compound: "OCCOCCN1CCN(C(c2ccccc2)c2ccc(Cl)cc2)CC1 (stereo unspecified) [HYDROXYZINE]"
  measured: "15.5 s"
- compound: "CCc1oc2ccccc2c1C(=O)c1cc(Br)c(O)c(Br)c1"
  measured: "16.2 s"
- compound: "CN(C)C(=N)N=C(N)N"
  measured: "16.8 s"
- compound: "CCCCc1oc2ccccc2c1C(=O)c1cc(I)c(OCCN(CC)CC)c(I)c1"
  measured: "18.2 s"
- compound: "CCC1(c2ccccc2)C(=O)NC(=O)NC1=O"
  measured: "15.6 s"
- compound: "O=NN(CCCl)C(=O)NC1CCCCC1"
  measured: "17.7 s"
- compound: "CC(C)N(CCC(C(N)=O)(c1ccccc1)c1ccccn1)C(C)C (stereo unspecified) [DISOPYRAMIDE]"
  measured: "22 s"
- compound: "CC1=C(CC(=O)O)c2cc(F)ccc2/C1=C\\c1ccc([S+](C)[O-])cc1 (stereo unspecified)"
  measured: "16 s"

* * *

# Species: Rattus norvegicus
# method: Open TG-GATES - Regimen: Daily Repeat
# Assay type: toxicity, organism-based, Sprague-Dawley
# Set-up: regimen Daily Repeat, gender Male, age 6 weeks
# conditions: in vivo, po, 0 mg/kg, […], tissue Liver, route gavage, dose level Control, time 7 day
measured_endpoint: LIVER (g)

- molecule: "CC(C)N(CCC(C(N)=O)(c1ccccc1)c1ccccn1)C(C)C (stereo not given) [DISOPYRAMIDE]"
  units_label: "g"
  measured: 13.2
- molecule: "CCC1(c2ccccc2)C(=O)NC(=O)NC1=O [PHENOBARBITAL]"
  units_label: "g"
  measured: 12.4
- molecule: "O=NN(CCCl)C(=O)NC1CCCCC1 [LOMUSTINE]"
  units_label: "g"
  measured: 12.8
- molecule: "CCc1oc2ccccc2c1C(=O)c1cc(Br)c(O)c(Br)c1 [BENZBROMARONE]"
  units_label: "g"
  measured: 12.8
- molecule: "CCCCc1oc2ccccc2c1C(=O)c1cc(I)c(OCCN(CC)CC)c(I)c1 [AMIODARONE]"
  units_label: "g"
  measured: 12.1

* * *

# Species on record: Rattus norvegicus
# method: Open TG-GATES - Regimen: Single
# Format: toxicity, organism-based, Sprague-Dawley
# Design: regimen Single, gender Male, age 6 weeks
# conditions: in vivo, po, 100 mg/kg, 24 h, tissue Blood, route gavage, dose level Low
// Lym lookup, one value per entry

- molecule: "CCC1(c2ccccc2)C(=O)NC(=O)NC1=O"
  units_label: "%"
  Lym: 77.8
- molecule: "O=NN1CCOCC1"
  units_label: "%"
  Lym: 66.4
- molecule: "CN(C)C(=N)N=C(N)N"
  units_label: "%"
  Lym: 75
- molecule: "CN(C)CCC=C1c2ccccc2COc2ccccc21 [DOXEPIN]"
  units_label: "%"
  Lym: 78.2

Values compiled from ChEMBL document CHEMBL3885861.
